TESTED SYSTEM: recombinant yeast Hsp90 protein (rHsp90) (Saccharomyces cerevisiae, UniProt P02829)
Sequence (P02829 whole entry): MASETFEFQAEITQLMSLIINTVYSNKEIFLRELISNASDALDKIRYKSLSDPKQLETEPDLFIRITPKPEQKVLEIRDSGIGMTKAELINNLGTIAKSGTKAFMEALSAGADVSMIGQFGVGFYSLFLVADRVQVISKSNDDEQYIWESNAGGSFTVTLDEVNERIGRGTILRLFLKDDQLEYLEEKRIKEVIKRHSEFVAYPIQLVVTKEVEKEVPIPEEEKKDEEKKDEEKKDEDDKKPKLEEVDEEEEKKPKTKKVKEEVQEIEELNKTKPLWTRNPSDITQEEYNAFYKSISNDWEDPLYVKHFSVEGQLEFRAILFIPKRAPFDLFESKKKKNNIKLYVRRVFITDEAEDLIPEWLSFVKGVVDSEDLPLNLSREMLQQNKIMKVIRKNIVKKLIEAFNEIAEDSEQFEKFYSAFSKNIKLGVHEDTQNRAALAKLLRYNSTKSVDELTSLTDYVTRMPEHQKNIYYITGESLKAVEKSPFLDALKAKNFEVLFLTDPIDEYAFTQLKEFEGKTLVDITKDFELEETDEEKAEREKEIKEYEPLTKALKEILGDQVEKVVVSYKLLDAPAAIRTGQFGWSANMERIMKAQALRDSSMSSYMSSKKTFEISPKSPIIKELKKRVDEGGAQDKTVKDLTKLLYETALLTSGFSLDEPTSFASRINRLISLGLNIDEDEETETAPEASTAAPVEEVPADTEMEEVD
METHOD SUMMARY: Hsp90 ATPase assay
CONDITION CONTEXT: rHsp90 100 μg/mL, ATP 100 μM, 37° C., two hours, BIOMOL GREEN; read-out: IC50 value (concentration for 50% inhibition of ATP activity)
pIC50: −log10 of the molar value.
PROPERTY MEASURED: pIC50

Below, each entry is followed by its recorded pIC50 result.
COc1ccnc(Cn2nc3c4c(nc(N)nc42)SCC3)c1C :: 6.01
COc1c(C)cnc(Cn2nc3c4c(nc(N)nc42)SCC(CCN2CCCC2)=C3)c1C :: 6.00
COc1c(C)cnc(Cn2nc3c4c(nc(N)nc42)SC(C(=O)NC2CC2)C3)c1C (centres unmarked) :: 5.66

1. Nc1nc2c3c(nn(Cc4ccc5c(c4)OCO5)c3n1)CCS2
2. CNC(=O)OC1CSc2nc(N)nc3c2c(nn3Cc2ncc(C)c(OC)c2C)C1 (centres unmarked)
(Q) Which is greater in pIC50, the first item 1 or the second item 2 ? Mark your answer with the label of the selected entry.
(A) 2
(2: 5.48, 1: 5.27)
